# System: 898857-211-R-J1-PDC complex spheroids, growth % test/control
# testMethodNotes: Anticancer human tumor 898857-211-R-J1-PDC patient-derived melanoma cell line growth inhibition [RAS]; active = viability on the fitted dose curve at most 10% of control; inactive = the rest
# assaySetup: second compound 0.316 µM; first compound 0.316 µM
Classes used: 1 for active, -1 for inactive

{"columns": ["molecule", "measuredOn", "assignedCategory"],
 "data": [
  ["CCC(CC)c1cc(NC2CCC(N)C2)n2nccc2n1 (stereo not given) + C=CC(=O)N1CCN(c2nc(OCC3CCCN3C)nc3c(F)c(-c4nc(N)cc(C)c4C(F)(F)F)c(Cl)cc23)C(C)C1", "898857-211-R-J1-PDC complex spheroids, growth % test/control", -1],
  ["CC(Nc1ccc2c(c1)OCCn1cc(N3C(=O)OCC3C(F)F)nc1-2)C(N)=O (stereo not given) + C#Cc1c(F)ccc2cc(O)cc(-c3ncc4c(N5CC6CCC(C5)N6)nc(OCC56CCCN5CC(F)C6)nc4c3F)c12", "898857-211-R-J1-PDC complex spheroids, growth % test/control", -1],
  ["CC(C)NCC(C(=O)N1CCN(c2ncnc3c2C(C)CC3O)CC1)c1ccc(Cl)cc1 (stereo not given) + C#Cc1c(F)ccc2cc(O)cc(-c3ncc4c(N5CC6CCC(C5)N6)nc(OCC56CCCN5CC(F)C6)nc4c3F)c12", "898857-211-R-J1-PDC complex spheroids, growth % test/control", -1],
  ["CCN1CCN(Cc2ccc(Nc3ncc(F)c(-c4cc(F)c5nc(C)n(C(C)C)c5c4)n3)nc2)CC1 + C=CC(=O)N1CCN(c2nc(OCC3CCCN3C)nc3c(F)c(-c4nc(N)cc(C)c4C(F)(F)F)c(Cl)cc23)C(C)C1", "898857-211-R-J1-PDC complex spheroids, growth % test/control", -1],
  ["CC(C)NCC(C(=O)N1CCN(c2ncnc3c2C(C)CC3O)CC1)c1ccc(Cl)cc1 (stereo not given) + C=CC(=O)N1CCN(c2nc(OCC3CCCN3C)nc3c(F)c(-c4nc(N)cc(C)c4C(F)(F)F)c(Cl)cc23)C(C)C1", "898857-211-R-J1-PDC complex spheroids, growth % test/control", -1],
  ["C=CC(=O)Nc1cc(Nc2nccc(-c3cn(C)c4ccccc34)n2)c(OC)cc1N(C)CCN(C)C + C=CC(=O)N1CCN(c2nc(OCC3CCCN3C)nc3c(F)c(-c4nc(N)cc(C)c4C(F)(F)F)c(Cl)cc23)C(C)C1", "898857-211-R-J1-PDC complex spheroids, growth % test/control", -1],
  ["Nc1ccn(C2OC(CO)C(O)C2(F)F)c(=O)n1 (stereo not given) + C#Cc1c(F)ccc2cc(O)cc(-c3ncc4c(N5CC6CCC(C5)N6)nc(OCC56CCCN5CC(F)C6)nc4c3F)c12", "898857-211-R-J1-PDC complex spheroids, growth % test/control", 1],
  ["Cc1nc(N2CCC3(CC2)COC(C)C3N)c(CO)nc1Sc1ccnc(N)c1Cl (stereo not given) + C=CC(=O)N1CCN(c2nc(OCC3CCCN3C)nc3c(F)c(-c4nc(N)cc(C)c4C(F)(F)F)c(Cl)cc23)C(C)C1", "898857-211-R-J1-PDC complex spheroids, growth % test/control", -1],
  ["CC(=O)OC12COC1CC(O)C1(C)C(=O)C(O)C3=C(C)C(OC(=O)C(O)C(NC(=O)OC(C)(C)C)c4ccccc4)CC(O)(C(OC(=O)c4ccccc4)C21)C3(C)C (stereo not given) + C#Cc1c(F)ccc2cc(O)cc(-c3ncc4c(N5CC6CCC(C5)N6)nc(OCC56CCCN5CC(F)C6)nc4c3F)c12", "898857-211-R-J1-PDC complex spheroids, growth % test/control", -1],
  ["CC1(O)CCCC1n1c(=O)c(C(F)F)cc2cnc(NC3CCN(S(C)(=O)=O)CC3)nc21 (stereo not given) + C#Cc1c(F)ccc2cc(O)cc(-c3ncc4c(N5CC6CCC(C5)N6)nc(OCC56CCCN5CC(F)C6)nc4c3F)c12", "898857-211-R-J1-PDC complex spheroids, growth % test/control", -1],
  ["C[C@@H](NC(=O)c1ncnc(N)c1Cl)c1ncc(C(=O)Nc2cc(C(F)(F)F)c(Cl)cn2)s1 + C#Cc1c(F)ccc2cc(O)cc(-c3ncc4c(N5CC6CCC(C5)N6)nc(OCC56CCCN5CC(F)C6)nc4c3F)c12", "898857-211-R-J1-PDC complex spheroids, growth % test/control", -1],
  ["C=CC(=O)N1CCN(c2nc(OCC3CCCN3C)nc3c(F)c(-c4nc(N)cc(C)c4C(F)(F)F)c(Cl)cc23)C(C)C1 (stereo not given) + C#Cc1c(F)ccc2cc(O)cc(-c3ncc4c(N5CC6CCC(C5)N6)nc(OCC56CCCN5CC(F)C6)nc4c3F)c12", "898857-211-R-J1-PDC complex spheroids, growth % test/control", -1],
  ["NC1c2ccccc2OC12CCN(c1cnc3c(N4CCCc5ncccc54)n[nH]c3n1)CC2 (stereo not given) + C=CC(=O)N1CCN(c2nc(OCC3CCCN3C)nc3c(F)c(-c4nc(N)cc(C)c4C(F)(F)F)c(Cl)cc23)C(C)C1", "898857-211-R-J1-PDC complex spheroids, growth % test/control", -1],
  ["O=C(c1ccc(F)c(F)c1Nc1ccc(I)cc1F)N1CC(O)([C@@H]2CCCCN2)C1 + C=CC(=O)N1CCN(c2nc(OCC3CCCN3C)nc3c(F)c(-c4nc(N)cc(C)c4C(F)(F)F)c(Cl)cc23)C(C)C1", "898857-211-R-J1-PDC complex spheroids, growth % test/control", -1],
  ["C[C@@H](NC(=O)c1ncnc(N)c1Cl)c1ncc(C(=O)Nc2cc(C(F)(F)F)c(Cl)cn2)s1 + C=CC(=O)N1CCN(c2nc(OCC3CCCN3C)nc3c(F)c(-c4nc(N)cc(C)c4C(F)(F)F)c(Cl)cc23)C(C)C1", "898857-211-R-J1-PDC complex spheroids, growth % test/control", -1]
]}

###

# Tested on: 898857-211-R-J1-PDC complex spheroids, growth % test/control
# testMethodNotes: Anticancer human tumor 898857-211-R-J1-PDC cell line growth inhibition [RAS];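 also: spheroids exposed to compound for seven days before readout; 100% = DMSO vehicle control wells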
# assaySetup: second compound 0.3 µM; first compound 0.0316 µM; stronger effect = lower value
# reported viability, T/C; entries follow
recordedMetric: viability, T/C (%)

{"columns": ["molecule", "measuredOn", "resultUnits", "recordedValue"],
 "data": [
  ["C=CC(=O)Nc1cc(Nc2nccc(-c3cn(C)c4ccccc34)n2)c(OC)cc1N(C)CCN(C)C + CCn1c(-c2cc(N3CCN(C)CC3)cnc2C(C)OC)c2c3cc(ccc31)-c1csc(n1)CC(NC(=O)C1CC1C)C(=O)N1CCCC(N1)C(=O)OCC(C)(C)C2", "898857-211-R-J1-PDC complex spheroids, growth % test/control", "%", 102],
  ["CC(Nc1ccc2c(c1)OCCn1cc(N3C(=O)OCC3C(F)F)nc1-2)C(N)=O (centres undefined) + CCn1c(-c2cccnc2C(C)OC)c2c3cc(ccc31)N1CCOC(CC(NC(=O)C(C(C)C)N(C)C(=O)C3(F)CCN(C(=O)C#CC(C)(C)N(C)C)CC3)C(=O)N3CCCC(N3)C(=O)OCC(C)(C)C2)C1", "898857-211-R-J1-PDC complex spheroids, growth % test/control", "%", 73.9],
  ["C=CC(=O)N1CCN(c2nc(OCC3CCCN3C)nc3c(F)c(-c4nc(N)cc(C)c4C(F)(F)F)c(Cl)cc23)C(C)C1 (centres undefined) + CCn1c(-c2cc(N3CCN(C)CC3)cnc2C(C)OC)c2c3cc(ccc31)-c1csc(n1)CC(NC(=O)C1CC1C)C(=O)N1CCCC(N1)C(=O)OCC(C)(C)C2", "898857-211-R-J1-PDC complex spheroids, growth % test/control", "%", 100],
  ["O=C(c1ccc(F)c(F)c1Nc1ccc(I)cc1F)N1CC(O)([C@@H]2CCCCN2)C1 + CCn1c(-c2cc(N3CCN(C)CC3)cnc2C(C)OC)c2c3cc(ccc31)-c1csc(n1)CC(NC(=O)C1CC1C)C(=O)N1CCCC(N1)C(=O)OCC(C)(C)C2", "898857-211-R-J1-PDC complex spheroids, growth % test/control", "%", 13.3]
]}

###

Recorded measurements of viability, T/C, one per entry
# Test system: 898857-211-R-J1-PDC complex spheroids, growth % test/control
# testMethodNotes: Anticancer human tumor 898857-211-R-J1-PDC cell line growth inhibition [RAS];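 also: spheroids exposed to compound for seven days before readout; 100% = DMSO vehicle control wells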
# assaySetup: second compound 0.003 µM; first compound 3.16 µM; stronger effect = lower value

{"columns": ["compound", "viability, T/C [%]"],
 "data": [
  ["C[C@@H](NC(=O)c1ncnc(N)c1Cl)c1ncc(C(=O)Nc2cc(C(F)(F)F)c(Cl)cn2)s1 + CCn1c(-c2cccnc2C(C)OC)c2c3cc(ccc31)N1CCOC(CC(NC(=O)C(C(C)C)N(C)C(=O)C3(F)CCN(C(=O)C#CC(C)(C)N(C)C)CC3)C(=O)N3CCCC(N3)C(=O)OCC(C)(C)C2)C1", 45.6],
  ["CC(Nc1ccc2c(c1)OCCn1cc(N3C(=O)OCC3C(F)F)nc1-2)C(N)=O (configuration not stated) + CCn1c(-c2cc(N3CCN(C)CC3)cnc2C(C)OC)c2c3cc(ccc31)-c1csc(n1)CC(NC(=O)C1CC1C)C(=O)N1CCCC(N1)C(=O)OCC(C)(C)C2", 73.3],
  ["CC(C)NCC(C(=O)N1CCN(c2ncnc3c2C(C)CC3O)CC1)c1ccc(Cl)cc1 (configuration not stated) + CCn1c(-c2cccnc2C(C)OC)c2c3cc(ccc31)N1CCOC(CC(NC(=O)C(C(C)C)N(C)C(=O)C3(F)CCN(C(=O)C#CC(C)(C)N(C)C)CC3)C(=O)N3CCCC(N3)C(=O)OCC(C)(C)C2)C1", 79.6],
  ["CC(C)NCC(C(=O)N1CCN(c2ncnc3c2C(C)CC3O)CC1)c1ccc(Cl)cc1 (configuration not stated) + CCn1c(-c2cc(N3CCN(C)CC3)cnc2C(C)OC)c2c3cc(ccc31)-c1csc(n1)CC(NC(=O)C1CC1C)C(=O)N1CCCC(N1)C(=O)OCC(C)(C)C2", 63.3],
  ["CC(=O)OC12COC1CC(O)C1(C)C(=O)C(O)C3=C(C)C(OC(=O)C(O)C(NC(=O)OC(C)(C)C)c4ccccc4)CC(O)(C(OC(=O)c4ccccc4)C21)C3(C)C (configuration not stated) + CCn1c(-c2cc(N3CCN(C)CC3)cnc2C(C)OC)c2c3cc(ccc31)-c1csc(n1)CC(NC(=O)C1CC1C)C(=O)N1CCCC(N1)C(=O)OCC(C)(C)C2", 12.7],
  ["NC1c2ccccc2OC12CCN(c1cnc3c(N4CCCc5ncccc54)n[nH]c3n1)CC2 (configuration not stated) + CCn1c(-c2cccnc2C(C)OC)c2c3cc(ccc31)N1CCOC(CC(NC(=O)C(C(C)C)N(C)C(=O)C3(F)CCN(C(=O)C#CC(C)(C)N(C)C)CC3)C(=O)N3CCCC(N3)C(=O)OCC(C)(C)C2)C1", 97.9],
  ["CC(Nc1ccc2c(c1)OCCn1cc(N3C(=O)OCC3C(F)F)nc1-2)C(N)=O (configuration not stated) + CCn1c(-c2cccnc2C(C)OC)c2c3cc(ccc31)N1CCOC(CC(NC(=O)C(C(C)C)N(C)C(=O)C3(F)CCN(C(=O)C#CC(C)(C)N(C)C)CC3)C(=O)N3CCCC(N3)C(=O)OCC(C)(C)C2)C1", 96.7]
]}
